Molecular target: 17β-hydroxysteroid dehydrogenase type 2 (17β-HSD type 2) (Homo sapiens)
Construct: expressed in transfected cells; host or cells: MCF-7
Sequence (P37059 1-387): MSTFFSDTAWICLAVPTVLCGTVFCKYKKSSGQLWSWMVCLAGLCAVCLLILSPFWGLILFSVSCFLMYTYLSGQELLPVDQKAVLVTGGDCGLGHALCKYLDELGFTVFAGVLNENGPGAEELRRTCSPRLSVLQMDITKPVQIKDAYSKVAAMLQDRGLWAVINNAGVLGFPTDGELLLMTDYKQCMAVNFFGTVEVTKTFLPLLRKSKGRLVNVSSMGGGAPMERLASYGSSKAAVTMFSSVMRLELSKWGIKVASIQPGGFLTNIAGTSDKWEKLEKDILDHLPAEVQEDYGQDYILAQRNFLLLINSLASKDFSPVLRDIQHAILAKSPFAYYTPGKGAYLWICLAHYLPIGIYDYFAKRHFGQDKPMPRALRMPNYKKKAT
Experiment: Inhibition of 17β-HSD type 2 in MCF-7 cells stably expressing the isoenzyme (tritium labeled estradiol conversion, HPLC)
Type: cell-based
Details: MCF7; 1 μM test compound; MCF-7 cells expressing 17β-HSD type 2; 2 nM tritium labeled estradiol; read-out: % Inhibition HSD2 1 μM
EXPERIMENTAL READOUT: inhibition at 1 µM (%)

- CCCCn1c(-c2cc(OC)c(OC)c(OC)c2)nc2sc3c(c2c1=O)CCCC3: 21.5
- COCCn1c(-c2cccs2)nc2sc3c(c2c1=O)CCCC3: 33.2
- COc1cc(-c2nc3sc4c(c3c(=O)n2CC2CCCO2)CCC(Br)C4=O)c(Br)c(OC)c1OC (centres unmarked): 22.8

I = CCCc1nc2sc3c(c2c(=O)n1Cc1cc(Br)ccc1OC)CCC(Br)(Br)C3=O
II = O=c1c2c(nc(-c3ccccc3)n1Cc1ccccc1)sc1c(O)cccc12
Which has the smaller recorded inhibition at 1 µM, I or II ? Select an item and report its label. I
(I: 25.2%, II: 44.2%)

* * *

Target: 17β-hydroxysteroid dehydrogenase type 1 (17β-HSD type 1) (Homo sapiens, UniProt P14061)
Construct: expressed in transfected cells; host or cells: MCF-7
Sequence (P14061 whole entry): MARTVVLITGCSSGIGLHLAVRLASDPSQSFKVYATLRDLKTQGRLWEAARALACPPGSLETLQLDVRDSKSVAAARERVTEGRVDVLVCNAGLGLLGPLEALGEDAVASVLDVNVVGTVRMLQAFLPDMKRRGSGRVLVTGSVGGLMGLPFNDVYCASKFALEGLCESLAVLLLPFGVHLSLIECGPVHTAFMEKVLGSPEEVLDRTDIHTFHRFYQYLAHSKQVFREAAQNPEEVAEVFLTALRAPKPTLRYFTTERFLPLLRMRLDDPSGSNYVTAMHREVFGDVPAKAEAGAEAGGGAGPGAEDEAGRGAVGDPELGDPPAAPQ
Experiment: Inhibition of 17β-HSD type 1 in MCF-7 cells stably expressing the isoenzyme (tritium labeled estrone conversion, HPLC)
Format: cell-based
Conditions: MCF7; 1 μM test compound; MCF-7 cells expressing 17β-HSD type 1; 2 nM tritium labeled estrone; read-out: % Inhibition HSD1 1 μM
Excerpt: Biological Testing Materials and Methods 1. Inhibition of the 17β-hydroxysteroid dehydrocienase type 1, type 2 and type 3 enzyme The compounds were screened in respect of 17β-HSD enzyme activity in vitro on established MCF-7 cell lines, each stably expressing one of the respective 17β-HSD isoenzymes. The interconversion of substrate by each isoenzyme and the 17β-HSD inhibiting activity of chemical compounds in these cell lines were detected by HPLC system. […]
EXPERIMENTAL READOUT: inhibition at 1 µM (%)

- COc1cc(-c2nc3sc4c(c3c(=O)n2Cc2ccccc2)CCCC4O)cc(OC)c1OC (stereo not drawn): 23.6
- COc1cc(-c2nc3sc4c(O)cccc4c3c(=O)n2CC(C)C)cc(OC)c1OC: 21.2
- CCC(C)Cn1c(-c2cc(OC)c(OC)c(OC)c2Br)nc2sc3c(c2c1=O)CCC(Br)(Br)C3=O (stereo not drawn): 17.9
